Cited source for all entries: PubChem BioAssay AID1996

# CONDITION DETAILS: buffer; pH 7.4; 200.0 µM
QUANTITY: solubility kinetic

Examples from the recorded data:
[[record]]
compound = "O=C(Nc1ccc2c(c1)OCO2)C1CC1"
reported_measurement = "> 30.8 µg/mL"

[[record]]
compound = "CC(C)CNC(=O)COc1ncnc2sccc12"
reported_measurement = "> 39.8 µg/mL"

[[record]]
compound = "O=C(CN1CCCC1)Nc1ccccc1Sc1ccc(Cl)cc1"
reported_measurement = "8.6 µg/mL"


Batch lookup, solubility kinetic per entry.
1. Cc1ccccc1C(=O)NNC(=O)c1cccn1C
2. Cc1cccc2cc(COC(=O)c3cccc([N+](=O)[O-])c3)c(=O)[nH]c12

1. > 38.6 µg/mL
2. 1.5 µg/mL

Working through the 2 compounds below one at a time, give solubility kinetic for each.
1. O=C(COC(=O)c1c(F)cccc1Cl)NC1CCCCC1
2. Cc1ccc(C(=O)NCC(c2ccc(F)cc2)N2CCOCC2)s1 (configuration not stated)

1. > 47.1 µg/mL
2. > 52.3 µg/mL

====

Task for the reader: assign each of the following molecules its reported solubility kinetic.
# CONDITION DETAILS: buffer; pH 7.4; 200.0 µM

Below: 6 molecules and their reported solubility kinetic.
[[record]]
molecule = "CCOC(=O)c1c(C)[nH]c(C(=O)N2CCC(C(=O)OCC)CC2)c1C"
reported_measurement = "> 52.6 µg/mL"

[[record]]
molecule = "Cc1ccc(OCCNC(=O)c2ccc(C)o2)cc1"
reported_measurement = "> 38.9 µg/mL"

[[record]]
molecule = "Cc1ccc(Cn2c(=O)c3c(ncn3C)n(C)c2=O)cc1"
reported_measurement = "> 42.6 µg/mL"

[[record]]
molecule = "CN1CCN(c2ncc(CN3C(=O)c4ccccc4C3=O)s2)CC1"
reported_measurement = "> 51.4 µg/mL"

[[record]]
molecule = "Cc1ccc(N(CC(=O)N2CCc3ccccc3C2)S(C)(=O)=O)cc1"
reported_measurement = "> 53.8 µg/mL"

[[record]]
molecule = "Cc1ccc(OCC(=O)NCCO)c(Br)c1"
reported_measurement = "> 43.2 µg/mL"


I am curious: what solubility kinetic value has been reported for CCC(C)NC(=O)COCc1cc(-c2ccc3c(c2)OCO3)on1 (configuration not stated) ?
> 49.9 µg/mL

====

# CONDITION DETAILS: buffer; pH 7.4; 200.0 µM
So I've got a bunch of molecules here, and I need their solubility kinetic values.

Recorded solubility kinetic, per entry:
[[record]]
molecule = "O=C(NC(=S)N1CCN(C/C=C/c2ccccc2)CC1)c1ccco1"
quantity = "solubility kinetic"
reported_measurement = "> 53.3 µg/mL"

[[record]]
molecule = "CN(C(=O)COC(=O)c1ccc(Br)c(S(=O)(=O)N2CCOCC2)c1)C1CCCCC1"
quantity = "solubility kinetic"
reported_measurement = "> 75.5 µg/mL"


For each of the items listed, what is its solubility kinetic?
1. Cc1ccc(S(=O)(=O)Nc2cccc(S(=O)(=O)Nc3ccccc3C(=O)O)c2)c(C)c1
2. CCN1CCN(c2nc(-c3ccc(F)cc3)cc(=O)[nH]2)CC1
3. N#C/C(=C(/O)c1ccc(C(=O)c2ccccc2)cc1)c1nc2ccccc2[nH]1
4. CC(NS(=O)(=O)c1ccc2ccccc2c1)c1ccccn1.Cl (stereo unspecified)

> 69.1 µg/mL
> 45.4 µg/mL
< 0.3 µg/mL
> 52.3 µg/mL
